System: Enterobacter cloacae
experiment: Antimicrobial activity against Enterobacter cloacae expressing beta-lactamase KPC-2 by Etest
Format: functional
measure: MIC

{"columns": ["molecule", "assayed.target", "MIC"],
 "data": [
  ["C[C@@H](O)[C@H]1C(=O)N2C(C(=O)O)=C(S[C@@H]3CN[C@H](C(=O)N(C)C)C3)[C@H](C)[C@H]12", "Enterobacter cloacae", "> 32 µg/mL"]
]}

Attention now shifts to the item below.
Recorded MIC for CC(C)(O/N=C(\C(=O)N[C@@H]1C(=O)N2C(C(=O)[O-])=C(C[n+]3ccccc3)CS[C@H]12)c1csc(N)n1)C(=O)O with Enterobacter cloacae, please?
> 256 µg/mL

* * *

System: Klebsiella pneumoniae
experiment: Antimicrobial activity against Klebsiella pneumoniae PFGE clone C expressing beta-lactamase KPC-2 by Etest
Type: functional
measure: MIC

{"columns": ["compound", "assayed.target", "result"],
 "data": [
  ["NCC[C@H](O)C(=O)N[C@@H]1C[C@H](N)[C@@H](O[C@H]2O[C@H](CN)[C@@H](O)[C@H](O)[C@H]2O)[C@H](O)[C@H]1O[C@H]1O[C@H](CO)[C@@H](O)[C@H](N)[C@H]1O", "Klebsiella pneumoniae", "> 1 µg/mL"],
  ["C[C@@H](O)[C@H]1C(=O)N2C(C(=O)O)=C(SCCNC=N)C[C@H]12 [IMIPENEM ANHYDROUS]", "Klebsiella pneumoniae", "> 32 µg/mL"],
  ["CC(C)(O/N=C(\\C(=O)N[C@@H]1C(=O)N2C(C(=O)[O-])=C(C[n+]3ccccc3)CS[C@H]12)c1csc(N)n1)C(=O)O", "Klebsiella pneumoniae", "> 256 µg/mL"],
  ["CO[C@@]1(NC(=O)Cc2cccs2)C(=O)N2C(C(=O)O)=C(COC(N)=O)CS[C@@H]21", "Klebsiella pneumoniae", "> 128 µg/mL"],
  ["CN(C)c1cc(NC(=O)CNC(C)(C)C)c(O)c2c1C[C@H]1C[C@H]3[C@H](N(C)C)C(O)=C(C(N)=O)C(=O)[C@@]3(O)C(O)=C1C2=O", "Klebsiella pneumoniae", "0.5 µg/mL"]
]}

Endpoint output: MIC of C[C@@H](O)[C@H]1C(=O)N2C(C(=O)O)=C(S[C@@H]3CN[C@H](C(=O)N(C)C)C3)[C@H](C)[C@H]12 . Value?
> 32 µg/mL

Now consider C[C@@H](O)[C@H]1C(=O)N2C(C(=O)O)=C(S[C@@H]3CN[C@H](C(=O)Nc4cccc(C(=O)O)c4)C3)[C@H](C)[C@H]12 .
> 32 µg/mL

* * *

Test system: Klebsiella oxytoca
experiment: Antimicrobial activity against Klebsiella oxytoca expressing beta-lactamase KPC-2 by Etest
Assay type: functional
measure: MIC (µg/mL)
Answer with a number only, understood to be in µg/mL.

Consider the following illustrative entries.
{"columns": ["smiles.entry", "units.symbol", "number"],
 "data": [
  ["CN(C)c1cc(NC(=O)CNC(C)(C)C)c(O)c2c1C[C@H]1C[C@H]3[C@H](N(C)C)C(O)=C(C(N)=O)C(=O)[C@@]3(O)C(O)=C1C2=O", "µg/mL", 2],
  ["NCC[C@H](O)C(=O)N[C@@H]1C[C@H](N)[C@@H](O[C@H]2O[C@H](CN)[C@@H](O)[C@H](O)[C@H]2O)[C@H](O)[C@H]1O[C@H]1O[C@H](CO)[C@@H](O)[C@H](N)[C@H]1O", "µg/mL", 2]
]}

Below: the item to evaluate.
I'm curious: which MIC was measured for CC(C)(O/N=C(\C(=O)N[C@@H]1C(=O)N2C(C(=O)[O-])=C(C[n+]3ccccc3)CS[C@H]12)c1csc(N)n1)C(=O)O tested on Klebsiella oxytoca?
128

Recorded values, source ChEMBL document CHEMBL1649221.
